Origin of the recorded values: PubChem BioAssay (NCI)

// reported growth per item
Test system: MALME-3M melanoma
Test: NCI-60 one-dose screen, 48 h (100 = growth as untreated, 0 = no growth, -100 = all killed)
Details: 10 µM unless noted
Procedure: Cells are grown in 96 well plates and exposed to the test compound for 48 hours. Compounds are tested at a single concentration, which is 10^-5 M for most compounds. The reported endpoint is percent growth (GI% or GIPRCNT), where numbers from 0 - 100% represent growth inhibition, and numbers from -100% - 0 represent cell death. For example, a value of 40 represents 60% growth inhibition. A value of 0 means no net growth occurred over the course of the experiment. […]
Compounds without any hit were thinned out: in the full panel of roughly 83,000, 20% have a hit.
Report the value in % with no unit label.

[[record]]
compound = "Cc1ccc(C(=O)Nc2ccc(CN3CCN(C)CC3)c(C(F)(F)F)c2)cc1C#Cc1cnc2cccnn12"
observed = -85.5

[[record]]
compound = "COc1cc2nccc(Oc3ccc(NC(=O)Nc4cc(C)on4)c(Cl)c3)c2cc1OC"
observed = 20.4


Input line: Annotate the compound CC(C)(C)OC(=O)N1CCC(O)[C@@H](O[Si](c2ccccc2)(c2ccccc2)C(C)(C)C)[C@H]1/C=C/c1ccccc1 (stereo not given in full) with its measured growth.
Output line: 47.3

Input line: Annotate the compound `COc1ccc(Nc2ncccc2NC(=O)c2cn(Cc3cccc(Oc4ccccc4)c3)nn2)cc1` with its measured growth.
Output line: 85.8

Input line: Annotate the compound `CCOc1cccc(/C=N/NC(=O)c2ccccc2Nc2ccnc(C(F)(F)F)c2)c1O` with its measured growth.
Output line: 18.1

Input line: Annotate the compound `CC#CC(=O)N1CCC[C@H]1c1nc(-c2ccc(C(=O)Nc3ccccn3)cc2)c2c(N)nccn12` with its measured growth.
Output line: 99

Input line: Annotate the compound `Cc1sc2c(c1C)c(=O)nc1c(-c3nc4ccccc4s3)n[nH]n12` with its measured growth.
Output line: 97.1

Input line: Annotate the compound `COC(=O)[C@]12CC[C@@H](C)[C@H](C)[C@@H]1C1=CC[C@@H]3[C@@]4(C)C(C#N)=CC(C)=C4CC[C@@]3(C)[C@]1(C)CC2` with its measured growth.
Output line: 87.5

Input line: Annotate the compound `Nc1c(C(=O)c2ccccc2)sc2nc(-c3cccs3)cc(-c3cccs3)c12` with its measured growth.
Output line: 74.4

Input line: Annotate the compound `CC(C)Nc1cc(-c2c[nH]c(C(=O)N[C@H](CO)c3cccc(Cl)c3)c2)c(Cl)cn1` with its measured growth.
Output line: 9.08

Input line: Annotate the compound `COc1cc(F)c(F)c(Nc2ccc(I)cc2F)c1NS(=O)(=O)C1(C[C@H](O)CO)CC1` with its measured growth.
Output line: 0.42

Input line: Annotate the compound `O=C(CNc1nnc(-c2ccc(Cl)cc2)o1)Nc1ccc(-c2nc3ccccc3s2)cc1` with its measured growth.
Output line: 88.7

Input line: Annotate the compound COC(=O)[C@H](C)NC(=O)[C@@H](OC)[C@@H]1Cc2cc3cc(OC4CC(OC5CC(O)C(O)C(C)O5)C(O)C(C)O4)c(C)c(O)c3c(O)c2C(=O)[C@H]1OC1CC(OC2CC(OC3CC(C)(O)C(O)C(C)O3)C(O)C(C)O2)C(O)C(C)O1 (stereo not given in full) with its measured growth.
Output line: -49.3

Input line: Annotate the compound `COC(=O)CCCNc1c(-c2c(O)c(O)cc3c(O)c(-c4c(C)cc5c(-c6nc7ccccn7c6NCCCC(=O)OC)c(O)c(O)cc5c4O)c(C)cc23)nc2ccccn12` with its measured growth.
Output line: 39.9

Input line: Annotate the compound O=C1C=CC2(NN=C(c3ccccc3)N2c2ccccc2)c2cccc(O)c21 (stereo not given) with its measured growth.
Output line: 11.6

Input line: Annotate the compound `C=C1C[C@H](O)[C@H](Br)C(C)(C)[C@@]12CCC(C)=C(Cl)C2` with its measured growth.
Output line: 38.5

Input line: Annotate the compound `C=CCN1C(=O)c2cccc3c(-c4ccc5c(c4)ncn5C4CCCCC4)ccc(c23)C1=O` with its measured growth.
Output line: 56

Input line: Annotate the compound `O=[N+]([O-])c1cc(Br)cc2c1[nH]c1ccc(Br)cc12` with its measured growth.
Output line: 66.3

Input line: Annotate the compound `COc1ccc(-c2ccc3ncc4c(c3c2)n(-c2ccc(N3CCNCC3)c(C(F)(F)F)c2)c(=O)n4C)cn1` with its measured growth.
Output line: -75.3

Input line: Annotate the compound `CCCCN1CCCC[C@@H]1C(=O)N[C@H](C(=O)N(C)[C@H](CCc1nc(C(=O)N[C@@H](Cc2ccccc2)C[C@H](C)C(=O)OC)cs1)C(C)C)C(C)C` with its measured growth.
Output line: 45.1

Input line: Annotate the compound `Cc1ccc(NC(=O)NC(=O)CSc2nc3ccccc3nc2C)cc1` with its measured growth.
Output line: 71.1

Input line: Annotate the compound COc1ccc(C2CC(=O)c3c(O)c(OC)c(OC)c(OC)c3O2)c(O)c1 (stereo not given) with its measured growth.
Output line: 64.7
